B1: tRNA (parent)
chain: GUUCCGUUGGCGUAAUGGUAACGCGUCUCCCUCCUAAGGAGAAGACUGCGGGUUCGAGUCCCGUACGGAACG

# Variants of: B1
# assayOverview: yeast fitness relative to wild type (ratio to wild type); higher = fitter; tRNA-Arg(CCU), competitive growth, 37 C, YPD
Variants at the floor of the assay were thinned out.
measuredAttribute: yeast fitness
One number for each entry.

C11U U28A A69C: 0.58

Each variant below has a reported value. Please supply its yeast fitness.
1. C34G G52C A70U
2. C29G C46U
3. A20G C24U G68C
4. C5A A20G C49A
5. U8G

Result string:
1: 0.542; 2: 0.611; 3: 0.573; 4: 0.568; 5: 0.711
